Origin of the recorded values: patent US11667652B2

Tested on: SKBR3 cells
ASSAY TEXT: SKBR3 Cell Viability Assay
Format: cell-based
COND: 72 hours, CellTiter Glo, read-out: MCL1 CV SKBR3 EC50
OBSERVABLE: pEC50
Scale for pEC50: -log10 of concentration given in mol/L; no unit attached.

For the compound COc1nn(C)cc1C(=O)N[S@@]1(=O)=NC(=O)c2ccc3c(n2)N(C[C@@H]2CC[C@H]2[C@@H](OC)/C=C\C[C@H](C)C1)C[C@@]1(CCCc2cc(Cl)ccc21)CO3 , what pEC50 is on record?
6.87

For the compound COc1nn(C)cc1C(=O)N[S@@]1(=O)=NC(=O)c2ccc3c(c2)N(C[C@@H]2CC[C@H]2[C@@H](OC)/C=C/[C@H](OCCn2ccnc2)[C@H](C)C1)C[C@@]1(CCCc2cc(Cl)ccc21)CO3 , what pEC50 is on record?
6.77

For the compound C=CC[C@@H]1C[C@@H]2C[C@H](OC)[C@@H]3CC[C@H]3CN3C[C@@]4(CCCc5cc(Cl)ccc54)CCc4ccc(cc43)C(=O)N=[S@](=O)(NC(=O)c3cn(C)nc3OC)C[C@@H](C)[C@H]2O1 , what pEC50 is on record?
6.05

For the compound COc1nn(C)cc1C(=O)N[S@@]1(=O)=NC(=O)c2ccc3c(c2)N(C[C@@H]2CC[C@H]2[C@@H]2/C=C/[C@@H](OCCCC(=O)O2)[C@H](C)C1)C[C@@]1(CCCc2cc(Cl)ccc21)CO3 , what pEC50 is on record?
6.64

For the compound COc1nn(C)cc1C(=O)N[S@@]1(=O)=NC(=O)c2ccc3c(c2)N(C[C@@H]2CC[C@H]2[C@@](O)(CC(=O)N(C)C)/C=C/C[C@H](C)C1)C[C@@]1(CCCc2cc(Cl)ccc21)CO3 , what pEC50 is on record?
7.80

For the compound C=CCO[C@@H]1/C=C/C[C@H](C)C[S@@](=O)(NC(=O)c2cn(C)nc2OC)=NC(=O)c2ccc3c(c2)N(C[C@@H]2CC[C@H]21)C[C@@]1(CCCc2cc(Cl)ccc21)CO3 , what pEC50 is on record?
6.37

For the compound COc1nn(C)cc1C(=O)N[S@@]1(=O)=NC(=O)c2ccc3c(c2)N(C[C@@H]2CC[C@H]2[C@@](O)(CC(=O)N2CCN(C4COC4)CC2)/C=C/C[C@H](C)C1)C[C@@]1(CCCc2cc(Cl)ccc21)CO3 , what pEC50 is on record?
7.27
